EXPERIMENTAL SYSTEM: human active recombinant p38α-6His tagged (Homo sapiens, UniProt Q16539)
Construct: 6His
Sequence (Q16539 whole entry): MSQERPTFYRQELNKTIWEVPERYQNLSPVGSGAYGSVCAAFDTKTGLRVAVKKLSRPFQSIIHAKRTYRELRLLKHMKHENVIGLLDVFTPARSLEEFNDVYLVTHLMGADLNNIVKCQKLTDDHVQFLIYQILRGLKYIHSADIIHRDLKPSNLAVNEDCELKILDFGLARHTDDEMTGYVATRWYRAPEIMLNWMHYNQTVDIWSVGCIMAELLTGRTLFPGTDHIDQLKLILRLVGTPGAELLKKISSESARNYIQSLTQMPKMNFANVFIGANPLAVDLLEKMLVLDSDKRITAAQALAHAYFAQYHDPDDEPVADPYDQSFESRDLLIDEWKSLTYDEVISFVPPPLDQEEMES
TEST SUMMARY: P38 alpha enzyme assay (AlphaScreen, biotinylated-ATF2 substrate)
ASSAY SETUP: 4 hours pre-incubation at 37° C., 1 mM ATP added
OBSERVABLE: IC50 (nM)
Respond numerically; units are nM and should not be typed.

Cc1ccc(NC(=O)c2ccnc(N3CCCC3)c2)cc1-n1ccc2ccc(OCCN3CCCC3)cc2c1=O [Example 5] ... 2

Requested field: IC50. Item: Cc1ccc(NC(=O)c2cccc(-c3cnco3)c2)cc1-n1ccc2ccc(OCCCN3CCCC3)cc2c1=O [Example 11] 0.794

Requested field: IC50. Item: Cc1ccc(NC(=O)c2ccnc(-c3cccs3)c2)cc1-n1ccc2ccc(OCCN(C)C)cc2c1=O [Example 9] 0.2

Requested field: IC50. Item: Cc1ccc(NC(=O)c2cccc(N3CCCCC3)c2)cc1-n1ccc2ccc(OCCN3CCCC3)cc2c1=O [Example 1] 10

From: patent US20080207596A1
